Measured inhibition at 1 µM values are reported for all entries that follow.
# Measurement Target: UniProtKB Q13555
# Sequence (Q13555 whole entry): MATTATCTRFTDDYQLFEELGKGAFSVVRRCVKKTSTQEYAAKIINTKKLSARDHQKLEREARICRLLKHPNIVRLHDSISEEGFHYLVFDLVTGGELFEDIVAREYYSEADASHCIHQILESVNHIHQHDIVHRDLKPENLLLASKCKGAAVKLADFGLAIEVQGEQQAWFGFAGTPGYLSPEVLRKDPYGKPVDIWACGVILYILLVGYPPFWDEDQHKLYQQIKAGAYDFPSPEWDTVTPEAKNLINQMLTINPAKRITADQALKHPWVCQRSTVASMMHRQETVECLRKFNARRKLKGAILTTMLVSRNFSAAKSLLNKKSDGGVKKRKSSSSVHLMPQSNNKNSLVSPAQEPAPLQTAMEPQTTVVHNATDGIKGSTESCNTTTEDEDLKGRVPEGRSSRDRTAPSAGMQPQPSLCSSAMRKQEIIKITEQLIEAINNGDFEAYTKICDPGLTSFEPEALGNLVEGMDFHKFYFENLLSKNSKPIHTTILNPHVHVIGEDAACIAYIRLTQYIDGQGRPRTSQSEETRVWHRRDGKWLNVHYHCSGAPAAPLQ
# Protocol Notes: Kinase panel profiling at 1 µmol/L (MSA or IMAP), percentage inhibition
# Type: biochemical
# Measurement Context: CaMK2γ kinase assay; 1 µmol/L single concentration; read-out: %-inhibition CaMK2γ
Give the value in % but do not write % after it.

Problem: Quick one: inhibition at 1 µM for Cn1cc(-c2cc3c(N4CCN(c5ncc([C@@](C)(N)c6ccc(F)cc6)cn5)CC4)ncnn3c2)cn1 [avapritinib] ?
Solution: -4

Problem: Quick one: inhibition at 1 µM for Cc1cc(Nc2ncnc3ccc(NC4=NC(C)(C)CO4)cc23)ccc1Oc1ccn2ncnc2c1 [tucatinib] ?
Solution: -5

Problem: Quick one: inhibition at 1 µM for Cn1cnc2c(F)c(Nc3ccc(Br)cc3F)c(C(=O)NOCCO)cc21 [binimetinib] ?
Solution: -3.65

Problem: Quick one: inhibition at 1 µM for COc1ccc(CN2C3CC2CN(c2ccc(-c4cc(OCC(C)(C)O)cn5ncc(C#N)c45)cn2)C3)cn1 [selpercatinib] ?
Solution: 0.226

---

# Measurement Target: panel of 255 wild-type kinases (Homo sapiens, UniProt P49761)
# Sequence (P49761 whole entry): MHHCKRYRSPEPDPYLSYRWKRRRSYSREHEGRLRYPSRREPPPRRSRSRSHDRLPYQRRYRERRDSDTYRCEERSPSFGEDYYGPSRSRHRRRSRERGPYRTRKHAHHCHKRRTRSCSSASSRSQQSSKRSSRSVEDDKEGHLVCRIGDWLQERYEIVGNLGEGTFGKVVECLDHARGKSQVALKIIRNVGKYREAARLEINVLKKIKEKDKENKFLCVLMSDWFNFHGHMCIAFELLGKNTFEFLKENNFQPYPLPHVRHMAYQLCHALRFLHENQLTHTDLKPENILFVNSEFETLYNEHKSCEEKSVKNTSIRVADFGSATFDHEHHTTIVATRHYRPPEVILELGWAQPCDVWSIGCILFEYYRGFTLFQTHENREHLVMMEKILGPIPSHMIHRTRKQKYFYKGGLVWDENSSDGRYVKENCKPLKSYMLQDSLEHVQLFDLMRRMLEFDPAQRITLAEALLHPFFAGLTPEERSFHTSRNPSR
# Protocol Notes: Kinase panel profiling at 1 µmol/L (MSA or IMAP), percentage inhibition
# Format: biochemical
# Measurement Context: kinase CLK3; 1 µmol/L single concentration; read-out: %-inhibition at 1 µmol/L, CLK3
Measured inhibition at 1 µM values are reported for all entries that follow.
Give the value in % but do not write % after it.

Problem: Given the entry FC(F)(F)c1ccc(CNc2ccc(Cc3c[nH]c4ncc(Cl)cc34)cn2)cn1 , what inhibition at 1 µM was observed with panel of 255 wild-type kinases (Homo sapiens, UniProt P49761)?
Solution: 18

Problem: Given the entry Cc1nc(NC(=O)N2CCC[C@H]2C(N)=O)sc1-c1ccnc(C(C)(C)C(F)(F)F)c1 , what inhibition at 1 µM was observed with panel of 255 wild-type kinases (Homo sapiens, UniProt P49761)?
Solution: 22

Problem: Given the entry CCc1nc(C(N)=O)c(Nc2ccc(N3CCC(N4CCN(C)CC4)CC3)c(OC)c2)nc1NC1CCOCC1 , what inhibition at 1 µM was observed with panel of 255 wild-type kinases (Homo sapiens, UniProt P49761)?
Solution: 7

Problem: Given the entry COc1cc2ncnc(Nc3ccc(F)c(Cl)c3)c2cc1NC(=O)/C=C/CN1CCCCC1 , what inhibition at 1 µM was observed with panel of 255 wild-type kinases (Homo sapiens, UniProt P49761)?
Solution: 2.5

Problem: Given the entry COc1ccc(CN2C3CC2CN(c2ccc(-c4cc(OCC(C)(C)O)cn5ncc(C#N)c45)cn2)C3)cn1 , what inhibition at 1 µM was observed with panel of 255 wild-type kinases (Homo sapiens, UniProt P49761)?
Solution: 0.425

---

Measured inhibition at 1 µM values are reported for all entries that follow.
# Measurement Target: panel of 255 wild-type kinases (Homo sapiens, UniProt P07333)
# Sequence (P07333 20-972): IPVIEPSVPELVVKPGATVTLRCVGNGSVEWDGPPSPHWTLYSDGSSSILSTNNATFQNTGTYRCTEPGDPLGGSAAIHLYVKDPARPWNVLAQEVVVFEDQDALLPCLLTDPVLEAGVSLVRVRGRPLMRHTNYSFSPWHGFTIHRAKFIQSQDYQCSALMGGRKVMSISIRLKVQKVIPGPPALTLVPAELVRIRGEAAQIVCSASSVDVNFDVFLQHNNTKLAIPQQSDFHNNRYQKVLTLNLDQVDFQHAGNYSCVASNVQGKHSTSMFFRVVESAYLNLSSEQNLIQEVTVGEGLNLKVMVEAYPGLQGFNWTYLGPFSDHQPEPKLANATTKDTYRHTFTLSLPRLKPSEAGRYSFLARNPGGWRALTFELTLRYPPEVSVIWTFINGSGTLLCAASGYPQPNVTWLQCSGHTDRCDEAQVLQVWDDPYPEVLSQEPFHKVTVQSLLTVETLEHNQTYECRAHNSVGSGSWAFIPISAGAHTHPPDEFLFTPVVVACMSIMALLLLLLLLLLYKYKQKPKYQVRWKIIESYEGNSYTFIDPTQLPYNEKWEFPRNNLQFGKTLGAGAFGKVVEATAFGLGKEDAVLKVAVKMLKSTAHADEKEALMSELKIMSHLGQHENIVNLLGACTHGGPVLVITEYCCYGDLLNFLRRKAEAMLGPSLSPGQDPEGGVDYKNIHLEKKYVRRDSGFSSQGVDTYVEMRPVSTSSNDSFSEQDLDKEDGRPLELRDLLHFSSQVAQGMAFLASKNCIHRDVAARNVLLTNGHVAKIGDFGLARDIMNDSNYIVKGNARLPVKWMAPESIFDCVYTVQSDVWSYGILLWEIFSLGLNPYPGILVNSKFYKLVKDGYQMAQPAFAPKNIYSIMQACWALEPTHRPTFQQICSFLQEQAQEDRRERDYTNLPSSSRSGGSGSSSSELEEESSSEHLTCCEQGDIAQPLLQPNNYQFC
# Protocol Notes: Kinase panel profiling at 1 µmol/L (MSA or IMAP), percentage inhibition
# Assay type: biochemical
# Measurement Context: kinase FMS; 1 µmol/L single concentration; read-out: %-inhibition at 1 µmol/L, FMS
Give the value in % but do not write % after it.

Some solved entries appear below for comparison.
C=CC(=O)N1CCC([C@@H]2CCNc3c(C(N)=O)c(-c4ccc(Oc5ccccc5)cc4)nn32)CC1	-7
COc1ccc(CN2C3CC2CN(c2ccc(-c4cc(OCC(C)(C)O)cn5ncc(C#N)c45)cn2)C3)cn1	79

Problem: Given the entry COc1cc2ncnc(Nc3ccc(F)c(Cl)c3)c2cc1NC(=O)/C=C/CN1CCCCC1 , what inhibition at 1 µM was observed with panel of 255 wild-type kinases (Homo sapiens, UniProt P07333)?
Solution: 8.55

Problem: Given the entry CCc1nc(C(N)=O)c(Nc2ccc(N3CCC(N4CCN(C)CC4)CC3)c(OC)c2)nc1NC1CCOCC1 , what inhibition at 1 µM was observed with panel of 255 wild-type kinases (Homo sapiens, UniProt P07333)?
Solution: 104

Problem: Given the entry O=C(Nc1cnn2ccc(N3CCC[C@@H]3c3cc(F)ccc3F)nc12)N1CC[C@H](O)C1 , what inhibition at 1 µM was observed with panel of 255 wild-type kinases (Homo sapiens, UniProt P07333)?
Solution: -4.31

Problem: Given the entry CO[C@]1(C(=O)N[C@@H](C)c2ccc(-n3cc(F)cn3)nc2)CC[C@H](c2nc(C)cc(Nc3cc(C)[nH]n3)n2)CC1 , what inhibition at 1 µM was observed with panel of 255 wild-type kinases (Homo sapiens, UniProt P07333)?
Solution: 94

Problem: Given the entry Cn1cnc2c(F)c(Nc3ccc(Br)cc3Cl)c(C(=O)NOCCO)cc21 , what inhibition at 1 µM was observed with panel of 255 wild-type kinases (Homo sapiens, UniProt P07333)?
Solution: 8.51

---

Measured inhibition at 1 µM values are reported for all entries that follow.
# Measurement Target: panel of 255 wild-type kinases (Homo sapiens, UniProt P09769)
# Sequence (P09769 whole entry): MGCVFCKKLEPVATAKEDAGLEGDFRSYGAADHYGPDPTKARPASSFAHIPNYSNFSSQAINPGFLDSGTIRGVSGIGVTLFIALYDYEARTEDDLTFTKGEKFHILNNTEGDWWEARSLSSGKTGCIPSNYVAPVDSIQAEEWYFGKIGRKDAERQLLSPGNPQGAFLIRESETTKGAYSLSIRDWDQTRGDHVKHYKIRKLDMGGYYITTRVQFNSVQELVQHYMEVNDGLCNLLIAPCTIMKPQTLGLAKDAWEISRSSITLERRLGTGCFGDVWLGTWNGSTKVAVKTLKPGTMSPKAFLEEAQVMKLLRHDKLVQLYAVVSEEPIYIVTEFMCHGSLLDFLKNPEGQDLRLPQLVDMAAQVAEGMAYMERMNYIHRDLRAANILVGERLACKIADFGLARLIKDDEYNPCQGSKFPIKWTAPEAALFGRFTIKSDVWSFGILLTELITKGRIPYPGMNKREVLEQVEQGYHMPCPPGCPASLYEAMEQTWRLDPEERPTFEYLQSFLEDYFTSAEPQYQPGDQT
# Protocol Notes: Kinase panel profiling at 1 µmol/L (MSA or IMAP), percentage inhibition
# Format: biochemical
# Measurement Context: kinase FGR; 1 µmol/L single concentration; read-out: %-inhibition at 1 µmol/L, FGR
Give the value in % but do not write % after it.

Some solved entries appear below for comparison.
FC(F)(F)c1ccc(CNc2ccc(Cc3c[nH]c4ncc(Cl)cc34)cn2)cn1	5.64
Cn1cnc2c(F)c(Nc3ccc(Br)cc3F)c(C(=O)NOCCO)cc21	0.0227
CCN1CCN(c2ccc(Nc3cc(N(C)C(=O)Nc4c(Cl)c(OC)cc(OC)c4Cl)ncn3)cc2)CC1	46

Next compound, inhibition at 1 µM to be filled in.
Problem: Given the entry C[C@H]1Oc2cc(cnc2N)-c2c(nn(C)c2C#N)CN(C)C(=O)c2ccc(F)cc21 , what inhibition at 1 µM was observed with panel of 255 wild-type kinases (Homo sapiens, UniProt P09769)?
Solution: 22

---

# Measurement Target: panel of 255 wild-type kinases (Homo sapiens, UniProt Q13882)
# Sequence (Q13882 whole entry): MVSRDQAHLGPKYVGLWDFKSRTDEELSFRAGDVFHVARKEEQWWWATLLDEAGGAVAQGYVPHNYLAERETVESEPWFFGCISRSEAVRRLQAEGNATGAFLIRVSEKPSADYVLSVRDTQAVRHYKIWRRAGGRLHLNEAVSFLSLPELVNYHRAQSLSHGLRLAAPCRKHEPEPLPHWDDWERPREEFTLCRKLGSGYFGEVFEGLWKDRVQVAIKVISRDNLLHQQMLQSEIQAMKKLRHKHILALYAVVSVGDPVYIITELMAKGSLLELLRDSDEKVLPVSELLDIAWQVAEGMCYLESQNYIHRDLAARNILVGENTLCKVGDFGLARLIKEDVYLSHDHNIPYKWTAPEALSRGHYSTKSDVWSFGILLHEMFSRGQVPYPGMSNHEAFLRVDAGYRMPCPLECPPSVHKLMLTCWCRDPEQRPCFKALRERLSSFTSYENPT
# Protocol Notes: Kinase panel profiling at 1 µmol/L (MSA or IMAP), percentage inhibition
# Type: biochemical
# Measurement Context: BRK kinase assay; 1 µmol/L single concentration; read-out: %-inhibition BRK
Measured Metric: inhibition at 1 µM (%)
Give the value in % but do not write % after it.

Some solved entries appear below for comparison.
CCN1CCN(c2ccc(Nc3cc(N(C)C(=O)Nc4c(Cl)c(OC)cc(OC)c4Cl)ncn3)cc2)CC1 [infigratinib]	5.46
COc1ccc(CN2C3CC2CN(c2ccc(-c4cc(OCC(C)(C)O)cn5ncc(C#N)c45)cn2)C3)cn1 [selpercatinib]	19
Cn1cnc2c(F)c(Nc3ccc(Br)cc3Cl)c(C(=O)NOCCO)cc21 [selumetinib]	6

Next molecule, inhibition at 1 µM to be filled in.
Problem: Quick one: inhibition at 1 µM for O=C(Nc1cnn2ccc(N3CCC[C@@H]3c3cc(F)ccc3F)nc12)N1CC[C@H](O)C1 [larotrectinib] ?
Solution: 4.64

---

# System: 134 cancer cell lines
# Protocol Notes: Cell viability assay (ATPlite, 72 hours), IC50 on cancer cell line panel
# Measurement Context: Homo sapiens, LC-2-ad, read-out: IC50 in cell proliferation assay
Measured pIC50 values are reported for all entries that follow.
# pIC50 = -log10(concentration in molar units)

Some solved entries appear below for comparison.
C=CC(=O)N1CCC([C@@H]2CCNc3c(C(N)=O)c(-c4ccc(Oc5ccccc5)cc4)nn32)CC1	4.78
CCc1cc2c(cc1N1CCC(N3CCOCC3)CC1)C(C)(C)c1[nH]c3cc(C#N)ccc3c1C2=O	5.95
C[C@@H](Oc1cc(-c2cnn(C3CCNCC3)c2)cnc1N)c1c(Cl)ccc(F)c1Cl	5.71

Next molecule, pIC50 to be filled in.
Problem: Quick one: pIC50 for CCN1C(=O)N(c2c(F)c(OC)cc(OC)c2F)Cc2cnc3[nH]c(CN4CCOCC4)cc3c21 ?
Solution: 5.48

---

Measured pIC50 values are reported for all entries that follow.
# System: 134 cancer cell lines
# Protocol Notes: Cell viability assay (ATPlite, 72 hours), IC50 on cancer cell line panel
# Measurement Context: read-out: IC50 in cell proliferation assay, cell line 5637
# pIC50 = -log10(concentration in molar units)

Some solved entries appear below for comparison.
COc1cc2ncnc(Nc3ccc(F)c(Cl)c3)c2cc1NC(=O)/C=C/CN1CCCCC1	7.51
Cn1cnc2c(F)c(Nc3ccc(Br)cc3Cl)c(C(=O)NOCCO)cc21	5.10

Next compound, pIC50 to be filled in.
Problem: Given the entry Cc1cc(Nc2ncc(Cl)c(Nc3ccccc3S(=O)(=O)C(C)C)n2)c(OC(C)C)cc1C1CCNCC1 , what pIC50 was observed with 134 cancer cell lines?
Solution: 5.60

---

# Measurement Target: panel of 255 wild-type kinases (Homo sapiens)
# Protocol Notes: Kinase panel profiling at 1 µmol/L (MSA or IMAP), percentage inhibition
# Assay type: biochemical
# Measurement Context: kinase JAK1; 1 µmol/L single concentration; read-out: %-inhibition at 1 µmol/L, JAK1
Measured inhibition at 1 µM values are reported for all entries that follow.
Give the value in % but do not write % after it.

Problem: Given the entry CCn1c(=O)c(-c2cc(NC(=O)Nc3ccccc3)c(F)cc2Br)cc2cnc(NC)cc21 [ripretinib] , what inhibition at 1 µM was observed with panel of 255 wild-type kinases (Homo sapiens)?
Solution: 26

Problem: Given the entry Cc1nc(NC(=O)N2CCC[C@H]2C(N)=O)sc1-c1ccnc(C(C)(C)C(F)(F)F)c1 [alpelisib] , what inhibition at 1 µM was observed with panel of 255 wild-type kinases (Homo sapiens)?
Solution: -8

Problem: Given the entry CN1CCN(c2ccc(C(=O)Nc3n[nH]c4ccc(Cc5cc(F)cc(F)c5)cc34)c(NC3CCOCC3)c2)CC1 [entrectinib] , what inhibition at 1 µM was observed with panel of 255 wild-type kinases (Homo sapiens)?
Solution: 91

Problem: Given the entry COC(=O)N[C@@H](C)CNc1nccc(-c2cn(C(C)C)nc2-c2cc(Cl)cc(NS(C)(=O)=O)c2F)n1 [encorafenib] , what inhibition at 1 µM was observed with panel of 255 wild-type kinases (Homo sapiens)?
Solution: 3.6

Problem: Given the entry Cn1cnc2c(F)c(Nc3ccc(Br)cc3F)c(C(=O)NOCCO)cc21 [binimetinib] , what inhibition at 1 µM was observed with panel of 255 wild-type kinases (Homo sapiens)?
Solution: 5

Problem: Given the entry CCN1CCN(c2ccc(Nc3cc(N(C)C(=O)Nc4c(Cl)c(OC)cc(OC)c4Cl)ncn3)cc2)CC1 [infigratinib] , what inhibition at 1 µM was observed with panel of 255 wild-type kinases (Homo sapiens)?
Solution: 2.57

Problem: Given the entry C=CC(=O)N1CCC([C@@H]2CCNc3c(C(N)=O)c(-c4ccc(Oc5ccccc5)cc4)nn32)CC1 [zanubrutinib] , what inhibition at 1 µM was observed with panel of 255 wild-type kinases (Homo sapiens)?
Solution: -3

Problem: Given the entry FC(F)(F)c1ccc(CNc2ccc(Cc3c[nH]c4ncc(Cl)cc34)cn2)cn1 [pexidartinib] , what inhibition at 1 µM was observed with panel of 255 wild-type kinases (Homo sapiens)?
Solution: 7

Problem: Given the entry C[C@H](Nc1ncnc2nc[nH]c12)c1cc2cccc(Cl)c2c(=O)n1-c1ccccc1 [duvelisib] , what inhibition at 1 µM was observed with panel of 255 wild-type kinases (Homo sapiens)?
Solution: 0.053

Problem: Given the entry COc1cc2ncnc(Nc3ccc(F)c(Cl)c3)c2cc1NC(=O)/C=C/CN1CCCCC1 [dacomitinib] , what inhibition at 1 µM was observed with panel of 255 wild-type kinases (Homo sapiens)?
Solution: 0.444

Problem: Given the entry Cn1cnc2c(F)c(Nc3ccc(Br)cc3Cl)c(C(=O)NOCCO)cc21 [selumetinib] , what inhibition at 1 µM was observed with panel of 255 wild-type kinases (Homo sapiens)?
Solution: 2.46
